Each item that follows carries a reported pIC50.
molecular target: human JAK1 (Homo sapiens); construct: catalytic domain, amino acids 866-1154; catalog number PV4774; purchased Invitrogen PV4774; assay: JAK1 inhibition assay (polyGT substrate / Ulight-JAK1 peptide); type: biochemical; conditions: recombinant human JAK1 catalytic domain; polyGT or Ulight-JAK1 peptide assay
Sequence (P23458 866-1154): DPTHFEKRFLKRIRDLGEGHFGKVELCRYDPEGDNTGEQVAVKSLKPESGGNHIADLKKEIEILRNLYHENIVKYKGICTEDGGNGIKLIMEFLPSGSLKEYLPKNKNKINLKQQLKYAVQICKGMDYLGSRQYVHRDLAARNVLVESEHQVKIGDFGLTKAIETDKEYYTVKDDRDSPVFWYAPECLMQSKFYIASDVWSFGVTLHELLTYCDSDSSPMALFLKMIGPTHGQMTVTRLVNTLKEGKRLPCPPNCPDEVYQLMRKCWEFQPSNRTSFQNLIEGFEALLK
pIC50: −log10 of the molar value.

Please review the entries below; each comes with its answer.
Cc1c(OCC(C)C)cccc1N(C)c1cc2c(cn1)ncn2C : 6.30 to 7.00
Cn1cnc2cnc(N(CC3CC3)c3ccc(C#N)cc3F)cc21 : < 6.00
CN(c1cc2c(cn1)ncn2C)c1ccccc1C#N : < 6.00
Cc1ccc(OCCN2CCCC2)cc1N(C)c1cc2c(cn1)ncn2C : < 6.00

pIC50 recorded for this molecule, "CCc1ccccc1N(C)c1cc2c(cn1)ncn2C(F)F" , is 6.30 to 7.00
